EXPERIMENTAL_PROTOCOL: Single intravenous dose escalation of P5P, plasma pharmacokinetics (Examples Two and Three)
Assay type: in vivo, human
CONDITION: both sexes, human; Group 1, P5P 1 mg/kg single iv; plasma PAL; mean
Method: A phase one clinical trial was conducted to compare the pharmacokinetics of intravenously administered P5P and orally administered P5P. The trial was a single dose escalation study. […] P5P, pyridoxal, and 4-pyridoxic acid were evaluated in both plasma and urine over a 24 hour interval following either intravenous or oral dosing. […] Concentrations of pyridoxal-5′-phosphate (P5P) were measured from the plasma samples collected over a 24-bour interval after dosing in each phase. […]
MEASUREMENT_TYPE: AUC(0-inf) (ng·h/mL)
Give bare numbers, in ng·h/mL.

Returns the measured AUC(0-inf) for the input compound. Input: Cc1ncc(CO)c(C=O)c1O
2070

====

EXPERIMENTAL_PROTOCOL: clinical
Parameters: species or system human
CONDITION: human, in vivo, iv, 10 mg/kg, T1/2 el
For each entry below, report its half-life value.
Give bare numbers, in min.

| COMPOUND | MEASUREMENT |
| --- | --- |
| Cc1ncc(CO)c(C(=O)O)c1O | 138 |
| Cc1ncc(CO)c(C=O)c1O | 204 |

Alright, here's another compound for you.
Query (compound): Cc1ncc(COP(=O)(O)O)c(C=O)c1O [P5P, Pyridoxal 5′-phosphate, reference compound] ; field requested: half-life
308

====

EXPERIMENTAL_PROTOCOL: clinical
Set-up: species or system human
CONDITION: human, in vivo, iv, 10 mg/kg, Tmax
Protocol: Data sets analyzed—Six (6) healthy, adult non-smokers were administered intravenously a single daily dose of 10 mg/kb of P5P for four consecutive days and completed the study. […] Analytical Methods—Plasma and urine samples were used for analysis. P5P, PAL, and PA levels were determined by HPLC/FLD. The quantitation level was 5 ng/mL for plasma and 100 ng/mL for urine. […] AUC0-τ was calculated using the linear trapezoidal rule from time 0.000 h until 24.0 h. The AUC0-inf was calculated as: […]
Exercise: state measured Tmax for each of the compounds provided.
Answers are plain numbers, in min.

| COMPOUND | Tmax, min |
| --- | --- |
| Cc1ncc(CO)c(C(=O)O)c1O | 36.7 |
| Cc1ncc(COP(=O)(O)O)c(C=O)c1O [P5P, Pyridoxal 5′-phosphate, reference compound] | 5.34 |

Moving on to the next compound.
Data request, read-out Tmax, for Cc1ncc(CO)c(C=O)c1O
31.5

====

EXPERIMENTAL_PROTOCOL: Single intravenous dose escalation of P5P, plasma pharmacokinetics (Examples Two and Three)
Assay type: in vivo, human
CONDITION: both sexes, human, plasma, iv, 5 mg/kg, Group 2, P5P 5 mg/kg single iv; plasma P5P; mean
MEASUREMENT_TYPE: Tmax (min)
Numbers only, in min.

Need Tmax of Cc1ncc(COP(=O)(O)O)c(C=O)c1O [P5P, Pyridoxal 5′-phosphate, reference compound] , thanks.
8.4

====

EXPERIMENTAL_PROTOCOL: Single intravenous dose escalation of P5P, plasma pharmacokinetics (Examples Two and Three)
Assay type: in vivo, human
CONDITION: Group 2, P5P 5 mg/kg single iv; plasma P5P; mean
MEASUREMENT_TYPE: Kel (h⁻¹)
Numbers only, in h⁻¹.

Query (compound): Cc1ncc(COP(=O)(O)O)c(C=O)c1O [P5P, Pyridoxal 5′-phosphate, reference compound] ; field requested: Kel
0.118
